# credit: patent US20240285770A1

Experiment: Plasma concentrations and estimation of urinary D-mannitol concentration after administration to cynomolgus monkeys
Format: in vivo
Conditions: cynomolgus monkey, plasma; male cynomolgus monkeys, 500 mg/kg, average of 3 animals; read-out: Plasma concentration 8 hr (e)
experimental readout: concentration at 8 h

>  <substance smiles>
OC[C@@H](O)[C@@H](O)[C@H](O)[C@H](O)CO

>  <value observed>
4670 ng/mL

$$$$

---

Assay: Plasma concentrations and estimation of urinary D-mannitol concentration after administration to cynomolgus monkeys
Format: in vivo
Settings: cynomolgus monkey, plasma; female cynomolgus monkeys, 500 mg/kg; read-out: CLtot (h) (converted)

>  <substance smiles>
OC[C@@H](O)[C@@H](O)[C@H](O)[C@H](O)CO

>  <measurement units>
mL/min/kg

>  <clearance>
2.95

$$$$

---

Assay: Plasma concentrations and estimation of urinary D-mannitol concentration after administration to cynomolgus monkeys
Type: in vivo
Details: cynomolgus monkey, plasma; male cynomolgus monkeys, 500 mg/kg; read-out: CLtot (h) (converted)
experimental readout: clearance (mL/min/kg)

>  <compound>
OC[C@@H](O)[C@@H](O)[C@H](O)[C@H](O)CO [D-Mannitol, D-mannitol]

>  <experimental readout>
clearance

>  <measurement units>
mL/min/kg

>  <value observed>
3.12

$$$$

---

Assay: Plasma concentrations and estimation of urinary D-mannitol concentration after administration to cynomolgus monkeys
Assay type: in vivo
Conditions: cynomolgus monkey, plasma; male cynomolgus monkeys, 500 mg/kg, average of 3 animals
experimental readout: concentration at 4 h (µg/mL)

>  <substance smiles>
OC[C@@H](O)[C@@H](O)[C@H](O)[C@H](O)CO

>  <experimental readout>
concentration at 4 h

>  <measurement units>
µg/mL

>  <value observed>
89.2

$$$$

---

Assay: Plasma concentrations and estimation of urinary D-mannitol concentration after administration to cynomolgus monkeys
Type: in vivo
Conditions: cynomolgus monkey, plasma; female cynomolgus monkeys, 500 mg/kg, average of 3 animals
experimental readout: concentration at 4 h (µg/mL)

>  <substance smiles>
OC[C@@H](O)[C@@H](O)[C@H](O)[C@H](O)CO

>  <measurement units>
µg/mL

>  <value observed>
90.3

$$$$

---

Test: Plasma concentrations and estimation of urinary D-mannitol concentration after administration to cynomolgus monkeys
Assay type: in vivo
Details: cynomolgus monkey, plasma; male cynomolgus monkeys, 500 mg/kg; read-out: AUC0-24 hr (g)
experimental readout: AUC(0-t)

>  <substance smiles>
OC[C@@H](O)[C@@H](O)[C@H](O)[C@H](O)CO

>  <value observed>
2680 µg·h/mL

$$$$
